system-under-test: Full length UFC1, residues 1–167 (UniProt Q9Y3C8)
assay-explanation: ITC; VP-ITC, 25 °C; UBA5 peptides (~400 µM) titrated into 20–25 µM binding partner; 25 mM HEPES pH 7.5, 100 mM NaCl; one-site model; a single profile for each interaction
measure: Kd

| binder | result |
| --- | --- |
| GAMEDSGESLEDLMAKMKNM [UBA5 C-terminal region R3, residues 388–404] | > 11 µM |
